- assay.overview: Lipophilicity, log D of the compound
- Format: physicochemical
- measurement.conditions: octanol/water
I'd be grateful if you could share measured logD for these entries.
The response must contain the number and no unit.

Any idea what its logD is? The compound is "O=C1CN(Cc2ccc(-c3cccc(CN4CCCCC4)n3)cc2)C(=O)N1C1CCC1"
2.7

Do the same for "CC(C)CN1C(=O)CN(Cc2ccc(-c3ccc(F)c(CN4CCS(=O)(=O)CC4)n3)cc2)C1=O" please
3

Do the same for "O=C1CN(Cc2ccc(-c3ccc(F)c(CN4CCS(=O)(=O)CC4)n3)cc2)C(=O)N1C1CC1" please
1

Do the same for "CC(C)CN1C(=O)CN(Cc2ccc(-c3ccc(F)c(CN4CCCCC4)n3)cc2)C1=O" please
3.4

Do the same for "O=C1CN(Cc2ccc(-c3ccc(F)c(CN4CCCCC4)n3)cc2)C(=O)N1CC1CCC1" please
3.5

Do the same for "CCN1C(=O)CN(Cc2ccc(-c3cccc(CN4CCCCC4)n3)cc2)C1=O" please
1.7

Do the same for "CCN1C(=O)CN(Cc2ccc(-c3ccc(F)c(CN4CCCCC4)n3)cc2)C1=O" please
2.1

Do the same for "CC(C)CN1C(=O)CN(Cc2ccc(-c3cccc(CN4CCS(=O)(=O)CC4)n3)cc2)C1=O" please
3

Do the same for CC(C)CN1C(=O)CN(Cc2ccc(-c3ccc(F)c(CN4CCCC(C)C4)n3)cc2)C1=O (centres undefined) please
3.9
